Entries and their pKi
# Target or system: cynomolgus BK1-receptor (Macaca fascicularis)
# Sequence (Q3BCU0 whole entry): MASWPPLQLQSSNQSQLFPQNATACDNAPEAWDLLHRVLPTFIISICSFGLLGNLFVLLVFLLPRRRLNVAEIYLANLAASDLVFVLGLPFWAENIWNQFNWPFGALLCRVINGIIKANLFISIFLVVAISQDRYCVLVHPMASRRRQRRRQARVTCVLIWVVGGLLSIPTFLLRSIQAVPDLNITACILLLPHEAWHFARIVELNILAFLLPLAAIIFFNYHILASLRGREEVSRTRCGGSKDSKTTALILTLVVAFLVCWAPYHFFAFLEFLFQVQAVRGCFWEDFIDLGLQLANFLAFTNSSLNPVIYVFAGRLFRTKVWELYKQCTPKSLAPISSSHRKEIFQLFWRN
pKi: −log10 of the molar value.
Reported endpoint: pKi

>>> print(df.to_string())
                      smiles_representation  reported_endpoint  inequality_sign  observed_measurement
0  COc1ncc(C(=O)N[C@@]2(C(=O)NCc3ncc(Nc4c(F)cccc4C(F)(F)F)cc3Cl)CCOC2)cn1                pKi                =                  7.43
1  N#Cc1ccccc1Nc1ccc(CNC(=O)C2(NC(=O)c3cncnc3)CC2)cc1                pKi                =                  7.15
2  Cc1ccc(C(=O)NC2(C(=O)NCc3ccc(Nc4ccc(Cl)cc4C(F)(F)F)cn3)CC2)cn1                pKi                =                  7.24
3  Nc1cncc(C(=O)N[C@@]2(C(=O)NCc3ccc(Nc4c(F)cccc4C(F)(F)F)cc3F)CCOC2)c1                pKi                =                  7.34
4  O=C(NC1(C(=O)NCc2ccc(Nc3ccc(Cl)cc3C(F)(F)F)cn2)CC1)c1cnsc1                pKi                =                  7.43
5  CC(C)Oc1ccc(Nc2ccc(CNC(=O)C3(NC(=O)c4cncnc4)CC3)cc2)c(C(F)(F)F)c1                pKi                =                  6.43
6  Cc1ccc(Nc2ccc(CNC(=O)C3(NC(=O)c4cncnc4)CC3)nc2)c(Cl)c1                pKi                <                  6.30
7  O=C(N[C@@]1(C(=O)NCc2ccc(Nc3ccc(Br)cc3C(F)(F)F)cn2)CCOC1)c1cncnc1                pKi                =                  7.12

---

Entries with their measured Ki, system cynomolgus BK1-receptor (Macaca fascicularis, UniProt Q3BCU0):
Reported endpoint: Ki (µM)

>>> print(df.to_string())
                                   molecule  reported_endpoint  observed_measurement
0  O=C(NC1(C(=O)NCc2ccc(Nc3ccc(Br)cc3C(F)(F)F)cn2)CC1)c1cncs1 [(172)]                 Ki                0.0098
1  N#Cc1ccccc1Nc1ccc(CNC(=O)C2(NC(=O)c3cncnc3)CC2)c(F)c1 [(296)]                 Ki                 0.028
2  O=C(NC1(C(=O)NCc2ccc(Nc3ccc(F)cc3C(F)(F)F)cn2)CC1)c1cncc(O)c1 [(243)]                 Ki                 0.028
3  O=C(N[C@@]1(C(=O)NCc2ccc(Nc3ccc(Cl)cc3C(F)(F)F)cc2)CCOC1)c1cncs1 [(336)]                 Ki                 0.567
4  Nc1cncc(C(=O)N[C@@]2(C(=O)NCc3ncc(Nc4ccc(F)cc4C(F)(F)F)cc3F)CCOC2)c1 [(156)]                 Ki                0.0085
5  CC(=O)Nc1ccc(C(=O)NC2(C(=O)NCc3ccc(Nc4ccc(F)cc4C(F)(F)F)cn3)CC2)cn1 [(251)]                 Ki                 0.014
6  Cc1ncc(C(=O)NC2(C(=O)NCc3ncc(Nc4c(F)cccc4C(F)(F)F)cc3F)CC2)cn1 [(134)]                 Ki                0.0047
7  O=C(NC1(C(=O)NCc2ccc(Nc3ccc(Cl)cc3C(F)(F)F)cn2)CC1)c1ccc(O)nc1 [(239)]                 Ki                 0.182
